- Tested on: Trichosporon beigelii
- EXPERIMENTAL_DETAILS: Inhibition of Trichosporon beigelli 1188 for 48 hours in vitro.
- Format: functional
- EXPERIMENTAL_CONDITIONS: Trichosporon beigelii, 48 h; read-out: MIC

{"COMPOUND": "O=C1OC(CO)C=C1c1ccc(Cl)c(Cl)c1 (centres undefined)", "MIC": "> 1000 µM"}
{"COMPOUND": "COc1ccc(C2=CC(CO)OC2=O)cc1 (centres undefined)", "MIC": "1000 µM"}
{"COMPOUND": "O=C1OC(COC(=O)c2ccc(Cl)cc2)C=C1c1cccc(Cl)c1 (centres undefined)", "MIC": "15.6 µM"}
{"COMPOUND": "O=C1OC(COC(=O)c2ccc(Cl)cc2)C=C1c1ccc(Cl)c(Cl)c1 (centres undefined)", "MIC": "7.81 µM"}
